# maps each entry to its IC50
Biological target: T315I mutant form of BCR-ABL in Ba/F3 cells (Homo sapiens, UniProt P00519, T315I)
Construct: expressed in transfected cells; host or cells: Ba/F3 cells; the other entry of the earlier key: BCR (P11274, Breakpoint cluster region protein)
Sequence (P00519 242-493 T315I limits assumed): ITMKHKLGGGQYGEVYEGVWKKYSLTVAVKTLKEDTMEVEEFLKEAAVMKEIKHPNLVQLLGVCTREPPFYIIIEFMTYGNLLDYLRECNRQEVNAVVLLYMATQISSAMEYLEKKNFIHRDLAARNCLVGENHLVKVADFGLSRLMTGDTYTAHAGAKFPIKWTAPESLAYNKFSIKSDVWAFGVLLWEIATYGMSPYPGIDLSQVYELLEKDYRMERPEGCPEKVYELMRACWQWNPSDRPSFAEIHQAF
Assay: Abl_T315I p-ELISA Cellular Assay (BCR-ABL phospho-ELISA)
Format: cell-based
Conditions: 60-120 minutes incubation

The examples below pair each entry with its known result.
# COMPOUND STRUCTURE STRING, EXPERIMENTAL TARGET, IC50
records = [
    ("Nc1nc(-c2c[nH]c3ncc(-c4ccc5[nH]ccc5c4)cc23)cs1", "T315I mutant form of BCR-ABL in Ba/F3 cells (Homo sapiens, UniProt P00519, T315I)", "< 100 nM"),
    ("COc1ccccc1-c1c[nH]c2ncc(-c3ccc(S(N)(=O)=O)s3)cc12", "T315I mutant form of BCR-ABL in Ba/F3 cells (Homo sapiens, UniProt P00519, T315I)", "100 to 1000 nM"),
    ("CCOc1ccccc1-c1c[nH]c2ncc(-c3cncc(C(=O)N(C)C)c3)cc12", "T315I mutant form of BCR-ABL in Ba/F3 cells (Homo sapiens, UniProt P00519, T315I)", "100 to 1000 nM"),
    ("COc1ccccc1-c1c[nH]c2ncc(-c3cccc(C(=O)N4CCN(C(C)C)CC4)c3)cc12", "T315I mutant form of BCR-ABL in Ba/F3 cells (Homo sapiens, UniProt P00519, T315I)", "< 100 nM"),
    ("COc1ccccc1-c1c[nH]c2ncc(-c3c[nH]cn3)cc12", "T315I mutant form of BCR-ABL in Ba/F3 cells (Homo sapiens, UniProt P00519, T315I)", "100 to 1000 nM"),
    ("CNC(=O)c1cncc(-c2cnc3[nH]cc(-c4ccccc4OC)c3c2)c1", "T315I mutant form of BCR-ABL in Ba/F3 cells (Homo sapiens, UniProt P00519, T315I)", "< 100 nM"),
    ("COc1ccccc1-c1c[nH]c2ncc(-c3cc[nH]c(=O)c3)cc12", "T315I mutant form of BCR-ABL in Ba/F3 cells (Homo sapiens, UniProt P00519, T315I)", "100 to 1000 nM"),
    ("COc1cc(-c2cnc3[nH]cc(-c4ccc(O)cc4)c3c2)ccc1O", "T315I mutant form of BCR-ABL in Ba/F3 cells (Homo sapiens, UniProt P00519, T315I)", "< 100 nM"),
]

The reported value for `COc1ccccc1-c1c[nH]c2ncc(-c3ccc(O)c(CN4CCCN(C)CC4)c3)cc12` in terms of IC50 is < 100 nM

The reported value for `c1cc2cc(-c3c[nH]c4ncc(-c5ccc6[nH]cnc6c5)cc34)ccc2[nH]1` in terms of IC50 is 100 to 1000 nM

The reported value for `CCc1ccccc1-c1c[nH]c2ncc(-c3ccnc(F)c3)cc12` in terms of IC50 is 100 to 1000 nM

The reported value for `Oc1cccc(-c2cnc3[nH]cc(-c4ccn[nH]4)c3c2)c1` in terms of IC50 is 100 to 1000 nM

The reported value for `O=C(c1cncc(-c2cnc3[nH]cc(-c4ccc5cc[nH]c5c4)c3c2)c1)N1CCOCC1` in terms of IC50 is < 100 nM

###

biological target: T315I mutant form of BCR-ABL in Ba/F3 cells (Homo sapiens, UniProt P00519, T315I); construct: expressed in transfected cells; host or cells: Ba/F3 cells; the other entry of the earlier key: BCR (P11274, Breakpoint cluster region protein); test: Abl_T315I p-ELISA Cellular Assay (BCR-ABL phospho-ELISA); assay type: cell-based; conditions: 60-120 minutes incubation
pIC50: −log10 of the molar value.
# maps each entry to its pIC50

The examples below pair each entry with its known result.
# COMPOUND STRUCTURE STRING, pIC50
measured = [
    ("COc1ccccc1-c1c[nH]c2ncc(-c3cccc(C(=O)N4CCC(CO)CC4)c3)cc12", "> 7.00"),
    ("COc1cc(-c2cnc3[nH]cc(-c4ccccc4OC)c3c2)ccc1O", "> 7.00"),
]

Now let's try a different one.
The reported value for `COc1ccccc1-c1c[nH]c2ncc(-c3cccc(S(C)(=O)=O)c3)cc12` in terms of pIC50 is 6.00 to 7.00
